- Target or system: human IL-6 (human, UniProt P05231 30-212)
- Sequence (P05231 30-212 limits assumed): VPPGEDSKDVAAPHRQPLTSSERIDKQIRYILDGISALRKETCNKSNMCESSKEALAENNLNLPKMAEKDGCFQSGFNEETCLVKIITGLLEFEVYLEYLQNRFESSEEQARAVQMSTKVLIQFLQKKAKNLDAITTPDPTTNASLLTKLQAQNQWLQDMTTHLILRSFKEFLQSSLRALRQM
- Measurement description: SPR Biacore, purified, Protein A capture, 37 C
Provide the recorded pKd for the entries that follow.
One number for each entry, as −log10 of the molar value.

Please review the following examples before continuing.
Anti-IL-6 antibody, heavy chain WT / light chain WT (antibody, IgG1, V domains shown, IgG1; variable domains only; also called parent; wild-type) VH: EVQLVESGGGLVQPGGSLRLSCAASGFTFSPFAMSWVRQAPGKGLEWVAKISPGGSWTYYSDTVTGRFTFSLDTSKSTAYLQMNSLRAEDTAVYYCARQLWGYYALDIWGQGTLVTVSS VL: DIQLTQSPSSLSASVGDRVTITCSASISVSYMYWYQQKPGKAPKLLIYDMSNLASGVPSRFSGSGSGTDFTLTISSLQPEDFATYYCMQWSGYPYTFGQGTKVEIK    9.67
Anti-IL-6 antibody, heavy chain S35H, G66D, L100S / light chain M32L, M50D, N52S, M88Q (antibody, IgG1, V domains shown, IgG1; variable domains only; VL is variant III) VH: EVQLVESGGGLVQPGGSLRLSCAASGFTFSPFAMHWVRQAPGKGLEWVAKISPGGSWTYYSDTVTDRFTFSLDTSKSTAYLQMNSLRAEDTAVYYCARQSWGYYALDIWGQGTLVTVSS VL: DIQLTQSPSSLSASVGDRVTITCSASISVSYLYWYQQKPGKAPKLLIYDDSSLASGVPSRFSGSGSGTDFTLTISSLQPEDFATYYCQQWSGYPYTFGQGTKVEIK    9.93
Anti-IL-6 antibody, heavy chain S35H, G66D / light chain M32L, M50D, N52S, M88Q (antibody, IgG1, V domains shown, IgG1; variable domains only; VL is variant III) VH: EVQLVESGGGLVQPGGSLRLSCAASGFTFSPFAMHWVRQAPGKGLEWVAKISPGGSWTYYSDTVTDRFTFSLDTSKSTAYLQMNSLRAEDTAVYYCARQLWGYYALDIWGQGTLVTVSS VL: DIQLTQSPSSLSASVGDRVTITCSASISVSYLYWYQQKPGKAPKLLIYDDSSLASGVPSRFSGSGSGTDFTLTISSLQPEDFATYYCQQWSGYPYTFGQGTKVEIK    9.71

Turning now to a further binder:
QUERY: Entry Anti-IL-6 antibody, heavy chain S35H, G66D, L100T / light chain M32L, M50D, N52S, M88Q (antibody, IgG1, V domains shown, IgG1; variable domains only; VL is variant III) VH: EVQLVESGGGLVQPGGSLRLSCAASGFTFSPFAMHWVRQAPGKGLEWVAKISPGGSWTYYSDTVTDRFTFSLDTSKSTAYLQMNSLRAEDTAVYYCARQTWGYYALDIWGQGTLVTVSS VL: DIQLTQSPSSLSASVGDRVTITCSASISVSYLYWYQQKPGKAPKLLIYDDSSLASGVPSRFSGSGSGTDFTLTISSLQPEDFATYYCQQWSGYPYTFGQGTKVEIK : reported pKd = ?
RESULT: 9.58
